assay: physchem; conditions: ethyl acetate, organic solvent or mixture
RECORDED_ENDPOINT: solubility (mM)

# MOLECULE, RECORDED_ENDPOINT, BOUND_SIGN, RECORDED_VALUE
measured = [
    ("O=C(O)/C=C/c1ccc(O)c(O)c1", "solubility", "<", 50),
    ("N[C@@H](Cc1ccccc1)C(=O)O", "solubility", "<", 50),
    ("O=C(O)C1(c2ccc(-c3ccc(Cl)c(Cl)c3)c(F)c2)CC1", "solubility", "=", 100),
    ("NC(=O)c1cccnc1 [nicotinamide]", "solubility", "=", 50),
    ("O=C1NS(=O)(=O)c2ccccc21", "solubility", "=", 200),
    ("COc1cc(C=O)ccc1O", "solubility", "=", 200),
]
